Entries and their inhibition values follow.
- Method notes: Mycobacterium tuberculosis growth inhibition, primary screen (AID 1259343)
- Cond: at 10 µM, stronger effect = higher value
The whole screen tested about 6,200 compounds, of which about 2,900 (47%) were called active. The set was probably picked from earlier hits. The list shows a part of the results.
The figure you give is taken to be in %; do not add the unit.

Field: example entries. Status: answers known.
O=S(=O)(C1=Cc2ccccc2CC1)N1CCC2CCCCC2C1 (stereo not drawn) : 21.1
c1ccc(CCCc2nnnn2CC2CCOC2)cc1 (stereo not drawn) : 65.2
COc1ccc(CC(=O)Nc2cc(-c3cccs3)nn2-c2nc(C)c(C)c(=O)[nH]2)cc1 : 99.9
O=C(OC1CCc2[nH]c3ncccc3c2C1)c1ccccc1 (stereo not drawn) : -5.27
O=c1cc(CSc2ccc(Cl)cc2)nc2nc[nH]n12 : 30
Cc1ccc(OCCN(C)Cc2nc(COc3ccccc3)no2)cc1 : 80
O=C(Cc1cccc(F)c1)NCc1ccc(Cl)s1 : 64.5
Cc1cc(F)ccc1S(=O)(=O)Nc1cc(-c2ccccc2)on1 : 69.6
COc1ccc(NC(=O)c2ccc3c(c2)CCCC3)cn1 : 97.6
COC(=O)c1ccc(N2CN=C(c3ccc(C)cc3)NC2=S)cc1 : 87.5

Recall and state the measured inhibition for C=CCN1C(=O)C(=O)N(CC(=O)c2cc(C)n(CCCOC)c2C)C1=O . -11.2

Recall and state the measured inhibition for O=C(O[C@@H]1Cc2c(O)cc(O)cc2O[C@@H]1c1ccc(O)c(O)c1)c1cc(O)c(O)c(O)c1 . 78.4

Recall and state the measured inhibition for CCC(NC(=O)Nc1ccc(-c2csnn2)cc1)c1nccs1 (stereo not drawn) . -4.07

---

- Method notes: Mycobacterium tuberculosis growth inhibition, primary screen (AID 1259343)
- Cond: at 10 µM
Out of some 6,200 compounds screened, about 2,900 (47%) were called active. No stated cut-off is given here; in the data, active means inhibition above about 50%; inactive means the rest. The set was probably picked from earlier hits. This is one part of the list.
// allowed return values: 1 (active), -1 (inactive)

As a guide, the following entries are already answered.
O=C(NCCc1ccc(Cl)s1)c1ccc(Cl)o1 : 1
O=S1(=O)CCC(=NNc2ccc(Cl)cc2)c2cc(F)ccc21 : -1
Clc1ccc(NN=C2CCN(Cc3ccccc3)CC2)cc1 : 1
COc1ccc(N2CN=C3SCC(=O)N3C2)cc1 : 1

Record request — test call for COc1ccc(CN2CCN(c3ccc(Oc4ccccc4)cc3)C(=O)C2C)cc1 (stereo not given) -1

---

Entries and their inhibition values follow.
- Method notes: Mycobacterium tuberculosis growth inhibition, primary screen (AID 1259343)
- Cond: at 10 µM, stronger effect = higher value
In all, about 6,200 compounds went through this assay and about 2,900 (47%) were called active. The set was probably picked from earlier hits. The list shows a part of the results.
The figure you give is taken to be in %; do not add the unit.

Recall and state the measured inhibition for OCCc1ccc(-c2noc(C3CCC3)n2)cc1 . 40.7

---

- Method notes: Mycobacterium tuberculosis growth inhibition, primary screen (AID 1259343)
- Cond: at 10 µM
Out of some 6,200 compounds screened, about 2,900 (47%) were called active. No stated cut-off is given here; in the data, active means inhibition above about 50%; inactive means the rest. The set was probably picked from earlier hits. Some of the results follow.
// allowed return values: y for active, n for inactive

As a guide, the following entries are already answered.
COC(=O)C(Cc1ccc(OCCn2c(=O)sc3cc(C(=O)c4ccccc4)ccc32)cc1)C(=O)OC : y
O=[N+]([O-])c1cc(S(=O)(=O)Nc2ccc(Br)cc2)ccc1Cl : y
OCC1(Cc2ccccc2)CCCN(c2ccc(-c3ccccc3)nn2)C1 (configuration not stated) : n

Record request — test call for COc1ccccc1Nc1nnc(SCC(=O)c2ccc(O)c(O)c2)s1 y

Record request — test call for CCCc1cc(NCC2CCCO2)n2nc3nc(C)cc(C)c3c2n1 (configuration not stated) y

Record request — test call for COc1ccc(-c2nc(Nc3ccc(Cl)nc3)sc2C)cc1 n

Record request — test call for CCCc1cc(NCC2CCCO2)n2nc(C)c(-c3ccccc3)c2n1 (configuration not stated) n

Record request — test call for Cc1sc(NN=Cc2cccc(O)c2)nc1-c1ccccc1 y

Record request — test call for O=C(c1cnc2cc3c(cc2c1)OC1(CCCC1)O3)c1ccccc1O n
